This collection of values is drawn from ChEMBL document CHEMBL4138105.

System: Pseudomonas aeruginosa
procedure-text: Synergistic antibacterial activity against multidrug-resistant Pseudomonas aeruginosa CCARM 2095 after 72 hrs in presence of ciprofloxacin by chequerboard assay
Assay type: functional
measure-name: fractional inhibitory concentration index (FICI)
Give the figure by itself; no unit, no explanation.

// returns reported fractional inhibitory concentration index (FICI) for input "CC[C@H](C)[C@H](NC(=O)[C@H](CC(C)C)NC(=O)[C@@H](CCCCN)NC(=O)[C@@H](NC(=O)[C@@H](NC(=O)[C@H](CCCNC(=N)N)NC(=O)[C@@H](N)CCCCN)[C@@H](C)CC)C(C)C)C(=O)N[C@@H](CC(C)C)C(=O)N[C@@H](CCCCN)C(=O)N[C@@H](Cc1c[nH]c2ccccc12)C(=O)N[C@@H](CC(C)C)C(=O)N[C@@H](CCCNC(=N)N)C(N)=O" 0.5
